Data origin, for the record: patent US20210292423A1

Target: T1, Macaca fascicularis CD123 Fc-fusion protein (Macaca fascicularis)
T1 construct: also called cyno CD123-Fc
T1 sequence (chain, as listed by the source limits assumed): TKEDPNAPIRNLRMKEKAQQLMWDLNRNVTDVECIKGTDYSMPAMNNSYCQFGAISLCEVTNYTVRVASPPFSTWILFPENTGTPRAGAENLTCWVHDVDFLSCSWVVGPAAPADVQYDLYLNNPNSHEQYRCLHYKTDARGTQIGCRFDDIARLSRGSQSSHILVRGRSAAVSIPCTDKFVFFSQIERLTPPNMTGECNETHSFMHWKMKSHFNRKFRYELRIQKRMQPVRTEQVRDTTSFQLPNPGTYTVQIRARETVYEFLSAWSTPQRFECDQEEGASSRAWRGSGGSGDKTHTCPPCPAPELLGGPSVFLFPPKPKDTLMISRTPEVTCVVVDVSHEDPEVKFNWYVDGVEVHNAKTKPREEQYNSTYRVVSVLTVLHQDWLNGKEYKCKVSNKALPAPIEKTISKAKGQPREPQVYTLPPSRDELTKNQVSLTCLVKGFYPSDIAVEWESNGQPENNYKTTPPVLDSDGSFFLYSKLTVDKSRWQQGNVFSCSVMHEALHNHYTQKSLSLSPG
Assay: SPR Proteon XPR36, rat IgG captured, CD123-Fc analyte
pKd: −log10 of the molar value.
In this section we review reported pKd values for a set of binders.
value-type: pKd

3B10-E6 anti-CD123 rat IgG (hybridoma supernatant) (antibody, V domains shown, rat IgG; also called BFX - 3B10) VH: QVQLQQSGPELRRPGSSVRLSCKASGYRIKDFLIHWIKNRPEHGLEWIGWIDPEDGETKYAQKFQTKATLTADTSSNTAYMQLSSLTSEDTATYFCARWGDVYYGLMRGHVMDAWGQGTSVTVSS VL: DVLMTQTPVSLPVSLGGQVSISCRSSQSLVHSDGDTYLHWYLQKPGQSPQLLIYRVSNRFSGVPDRFSGSGSGTDFTLKISRVEPEDLGLYYCLQTTHFPPWTFGGGTKLEMK = 9.57
9D7-C8 anti-CD123 rat IgG (hybridoma supernatant) (antibody, V domains shown, rat IgG; also called BFX - 9D7) VH: EVKLQESGPSLVQSSQTLSLTCTVSGFSLTSYHIHWVRQTPGKGLEWMGVMWSDGDTSYNSALKSRLSISRDTSQSQVFLKMNSLQTEDTATYYCARGYYSSYLYLWFAYWGQGTLVTVSS VL: DIVMTQSPSSLAVSEGETVTINCKSSQSFLSSGDGKNYVAWYQYKPGQSPKLLIYWASTRQSGVPDRFIGSGSGTDFTLTISTVQAEDLAIYYCQQYYDTPLTFGSGTKLEIK = 10.15
6C10-C4 anti-CD123 rat IgG (hybridoma supernatant) (antibody, V domains shown, rat IgG; also called BFX - 6C10) VH: EVKLQESGPSLVQPSETLSLTCTVSGFSLTSYSVHWVRQHSGKSLEWMGRMWNDGDTSYNSAFTSRLSISRDTSKGQVFLKMNSLQTEDTGTYYCARGHRTPFDYWGQGVMVTVSS VL: DIVMTQSPSSLAVSAGETVTINCKSSQSFLSSGDERNYVAWYQHKPGQSPKLLIYWASTRHSGVPDRFIGSGSGTDFTLTISSVQAEDLAIYYCQQYYDTPLTFGSGTKLEIK = 9.10
